Molecular target: human A2a receptor (Homo sapiens, UniProt P29274)
Construct: purchased Perkin-Elmer RBHA2AM400UA; host or cells: HEK293
Sequence (P29274 whole entry): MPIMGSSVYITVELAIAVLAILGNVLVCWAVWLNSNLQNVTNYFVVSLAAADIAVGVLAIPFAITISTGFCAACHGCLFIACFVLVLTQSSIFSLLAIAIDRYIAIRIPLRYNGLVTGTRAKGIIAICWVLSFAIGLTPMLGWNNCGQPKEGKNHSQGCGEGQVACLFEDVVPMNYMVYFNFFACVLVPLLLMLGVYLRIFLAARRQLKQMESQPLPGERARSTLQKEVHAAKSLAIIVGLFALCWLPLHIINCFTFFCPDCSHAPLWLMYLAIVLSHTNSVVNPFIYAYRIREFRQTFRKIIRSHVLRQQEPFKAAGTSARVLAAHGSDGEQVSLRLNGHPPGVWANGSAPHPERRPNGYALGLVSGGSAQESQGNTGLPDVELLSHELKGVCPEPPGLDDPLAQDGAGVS
Assay: A2a receptor competition binding assay (Scintillation Proximity, tritiated radioligand)
Conditions: membranes from HEK293 cells expressing the human A2a receptor; 0.5 nM tritiated ligand; SPA beads; one hour at room temperature; read-out: A2a EC50
Protocol: Binding affinities of compounds of the invention for the human A2a receptor were determined in a competition binding assay using Scintillation Proximity technology. […] The beads were then allowed to settle to the bottom of the wells for 1 hr, after which the membrane-associated radioactivity was determined by scintillation counting in a TopCount microplate reader. Ki values were determined using the Cheng-Prusoff equation. […] The Ki value is calculated using the Cheng-Prusoff equation. […]
measured attribute: pEC50
For clarity, pEC50 is expressed as the negative log10 of concentration in mol/L.

Requested field: pEC50. Item: COc1cccc2c1nc(N)n1nc(CN3CCN(c4ccc(F)cc4F)CC3C)nc21 (centres unmarked) [Ex-95]
8.51

// same read-out, input: COc1cccc2c1nc(N)n1nc(CN3CCN(c4ncc(C(=O)O)s4)CC3C)nc21 (centres unmarked) [Ex-81]
7.17

// same read-out, input: COc1cncc(N2CCN(Cc3nc4c5cccc(OC)c5nc(N)n4n3)C(C)C2)c1 (centres unmarked) [Ex-146]
8.20

// same read-out, input: COc1cccc2c1nc(N)n1nc(CN3CCN(c4noc(C5CC5)n4)CC3C)nc21 (centres unmarked) [Ex-53]
7.80

// same read-out, input: COc1cccc2c1nc(N)n1nc(CN3CCN(c4ccc(C(F)(F)F)cn4)CC3C)nc21 (centres unmarked) [Ex-40]
7.65

// same read-out, input: COc1cccc2c1nc(N)n1nc(CN3CCN(c4ccc(F)cc4)CC3C(F)F)nc21 (centres unmarked) [Ex-175]
8.25

// same read-out, input: COc1cccc2c1nc(N)n1nc(CN3CCN(c4noc(C)n4)CC3C)nc21 (centres unmarked) [Ex-52]
7.31

// same read-out, input: COc1cccc2c1nc(N)n1nc(CN3CCN(c4ccc5nn(C)cc5c4)CC3C)nc21 (centres unmarked) [Ex-131]
9.16

// same read-out, input: COc1cccc2c1nc(N)n1nc(CN3CCN(c4ccc(F)cc4)C4(CC4)C3)nc21 [Ex-195]
7.38

// same read-out, input: CCn1ccnc1CN1CCN(Cc2nc3c4cccc(OC)c4nc(N)n3n2)C(C)C1 (centres unmarked) [Ex-12]
7.06

// same read-out, input: COc1cccc2c1nc(N)n1nc(CN3CCN(c4ncccc4C(F)(F)F)CC3C)nc21 (centres unmarked) [Ex-148]
7.74

// same read-out, input: COc1cc(F)cc2c1nc(N)n1nc(CN3CCN(c4ccc(C(F)(F)F)cn4)CC3C)nc21 (centres unmarked) [Ex-42]
7.55

// same read-out, input: COc1cccc2c1nc(N)n1nc(CCN3CCN(c4ccccn4)CC3)nc21 [Ex-165]
8.48

// same read-out, input: COc1cccc2c1nc(N)n1nc(CN3CCN(c4ccccn4)CC3)nc21 [Ex-170]
6.80

* * *

molecular target: human A2a receptor (Homo sapiens, UniProt P29274); construct: purchased Perkin-Elmer RBHA2AM400UA; host or cells: HEK293; test: A2a receptor competition binding assay (Scintillation Proximity, tritiated radioligand); details: membranes from HEK293 cells expressing the human A2a receptor; 0.5 nM tritiated ligand; SPA beads; one hour at room temperature; read-out: A2a EC50
measured attribute: pEC50
For clarity, pEC50 is expressed as the negative log10 of concentration in mol/L.

Requested field: pEC50. Item: COc1cccc2c1nc(N)n1nc(CN3CCN(c4nnn[nH]4)CC3C)nc21 (stereo not drawn)
6.97

// same read-out, input: COc1cccc2c1nc(N)n1nc(CN3CCN(c4ccc(Cl)cc4)C[C@@H]3C)nc21
7.73

// same read-out, input: COc1cccc2c1nc(N)n1nc(CN3CCN(Cc4ccc(N5CCCC5)cc4)CC3C)nc21 (stereo not drawn)
7.31

// same read-out, input: COc1cccc2c1nc(N)n1nc(CN3CCN(Cc4ccc(F)c(F)c4F)CC3C)nc21 (stereo not drawn)
7.73

// same read-out, input: COc1cccc2c1nc(N)n1nc(CN3CCN(c4noc(C(C)C)n4)CC3C)nc21 (stereo not drawn)
7.71

// same read-out, input: COc1cccc2c1nc(N)n1nc(CN3CCN(CCC(F)(F)F)CC34CC4)nc21
7.02

// same read-out, input: COCc1nc(N2CCN(Cc3nc4c5cccc(OC)c5nc(N)n4n3)C(C)C2)no1 (stereo not drawn)
7.68

// same read-out, input: COc1cccc2c1nc(N)n1nc(CN3CCN(c4ccccc4Cl)CC3C)nc21 (stereo not drawn)
7.91

// same read-out, input: COc1ccc(CN2CCN(Cc3nc4c5cccc(OC)c5nc(N)n4n3)C(C)C2)cc1F (stereo not drawn)
7.46

// same read-out, input: COc1cccc2c1nc(N)n1nc(CN3CCN(c4nc(C(C)(C)C)no4)CC3C)nc21 (stereo not drawn)
7.37

// same read-out, input: COc1cccc2c1nc(N)n1nc(CC(=O)N3CCN(c4ccccn4)CC3)nc21
8.14

// same read-out, input: COc1cccc2c1nc(N)n1nc(CN3CCN(c4cc(Cl)cc(Cl)c4)CC3C)nc21 (stereo not drawn)
8.55

// same read-out, input: COc1cccc2c1nc(N)n1nc(CN3CCN(c4cccc(C(F)(F)F)c4)C[C@H]3C)nc21
8.28

// same read-out, input: COc1cccc2c1nc(N)n1nc(CN3CCN(c4cccc(C)n4)CC3C)nc21 (stereo not drawn)
7.33

// same read-out, input: COCc1c2cc(N3CCN(Cc4nc5c6cccc(OC)c6nc(N)n5n4)C(C)C3)ccc2nn1C (stereo not drawn)
8.63

* * *

target: human A2a receptor (Homo sapiens); construct: purchased Perkin-Elmer RBHA2AM400UA; host or cells: HEK293; assay: A2a receptor competition binding assay (Scintillation Proximity, tritiated radioligand); conditions: membranes from HEK293 cells expressing the human A2a receptor; 0.5 nM tritiated ligand; SPA beads; one hour at room temperature; read-out: A2a EC50
pEC50: −log10 of the molar value.
Label true when pEC50 is at or above 8; otherwise label false.

Check the entry CCn1cncc1CN1CCN(Cc2nc3c4cccc(OC)c4nc(N)n3n2)C(C)C1 (stereo not drawn) : does pEC50 equal or exceed 8?
false

// same read-out, input: COc1cc(N2CCN(Cc3nc4c5cccc(OC)c5nc(N)n4n3)C(C)C2)ccc1F (stereo not drawn)
true

// same read-out, input: COc1cc(OC)cc(N2CCN(Cc3nc4c5cccc(OC)c5nc(N)n4n3)C(C)C2)c1 (stereo not drawn)
true

// same read-out, input: COc1cccc2c1nc(N)n1nc(CN3CCN(c4ccncc4C(F)(F)F)CC3C)nc21 (stereo not drawn)
false

// same read-out, input: COc1cccc2c1nc(N)n1nc(CN3CCN(Cc4ccc(F)cc4F)CC3C)nc21 (stereo not drawn)
false

// same read-out, input: COc1cccc2c1nc(N)n1nc(CN3[C@H](C)CN(C(=O)c4ccc(F)cc4)C[C@@H]3C)nc21
false

// same read-out, input: COc1cccc2c1nc(N)n1nc(CN3CCN(c4ccccc4C#N)CC3C)nc21 (stereo not drawn)
false

// same read-out, input: COc1cccc2c1nc(N)n1nc(CN3CCN(c4cc(C)ccn4)CC3C)nc21 (stereo not drawn)
false

// same read-out, input: CCc1nc(N2CCN(Cc3nc4c5cccc(OC)c5nc(N)n4n3)C(C)C2)no1 (stereo not drawn)
false

// same read-out, input: COc1cccc2c1nc(N)n1nc(CN3CC(C)N(c4ccccc4)CC3C)nc21 (stereo not drawn)
false

// same read-out, input: COc1cccc2c1nc(N)n1nc(CN3CCN(c4cnccc4C)CC3C)nc21 (stereo not drawn)
false

* * *

Kindly state pEC50 for each of the entries shown.
biological target: human A2a receptor (Homo sapiens); construct: purchased Perkin-Elmer RBHA2AM400UA; host or cells: HEK293; assay: A2a receptor competition binding assay (Scintillation Proximity, tritiated radioligand); settings: membranes from HEK293 cells expressing the human A2a receptor; 0.5 nM tritiated ligand; SPA beads; one hour at room temperature; read-out: A2a EC50
For clarity, pEC50 is expressed as the negative log10 of concentration in mol/L.

Requested field: pEC50. Item: COCCOc1cccc(N2CCN(Cc3nc4c5cccc(OC)c5nc(N)n4n3)C3(CC3)C2)c1
8.17

// same read-out, input: COc1cccc2c1nc(N)n1nc(CN3CCN(c4cc(F)cc(C(=O)O)c4)CC3C)nc21 (stereo not shown)
7.87

// same read-out, input: COc1ccc(N2CCN(Cc3nc4c5cc(F)cc(OC)c5nc(N)n4n3)CC2(C)C)cc1
7.79

// same read-out, input: CCOC(=O)N1CCN(Cc2nc3c4cccc(OC)c4nc(N)n3n2)C2(CC2)C1
7.90

meta.source: patent US9676780B2
